target: human α7 nAChR (Homo sapiens (Human), UniProt P36544); experiment: Automated patch-clamp electrophysiology functional assay (Assay A); assay type: cell-based; conditions: electrophysiology EC50 values; IonFlux HT whole-cell population patch, HEK cells expressing human α7/RIC-3, 40 μM acetylcholine
Sequence (P36544 23-502): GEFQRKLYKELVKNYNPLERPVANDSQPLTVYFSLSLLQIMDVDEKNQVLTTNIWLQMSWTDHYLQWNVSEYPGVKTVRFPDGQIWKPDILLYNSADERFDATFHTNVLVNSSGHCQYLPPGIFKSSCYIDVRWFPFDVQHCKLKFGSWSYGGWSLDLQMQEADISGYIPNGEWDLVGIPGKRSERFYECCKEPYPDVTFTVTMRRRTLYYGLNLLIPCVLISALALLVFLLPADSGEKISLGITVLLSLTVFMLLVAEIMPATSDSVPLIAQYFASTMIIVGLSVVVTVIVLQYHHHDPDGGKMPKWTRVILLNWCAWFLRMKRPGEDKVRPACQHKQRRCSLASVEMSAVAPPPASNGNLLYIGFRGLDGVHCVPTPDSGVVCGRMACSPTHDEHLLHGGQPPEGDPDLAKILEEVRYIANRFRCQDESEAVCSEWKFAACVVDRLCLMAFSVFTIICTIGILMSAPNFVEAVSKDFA
value.type: pEC50
Here pEC50 is given on a logarithmic scale as minus log10 of the concentration in mol/L.

Below: 5 compounds and their reported pEC50.
compound="CCOc1ccc([C@H](COC)NC(=O)C2C3Oc4ccc(-c5nn[nH]n5)cc4C32)cc1 (stereo partly drawn)" value_type=pEC50 assay_result=5.82
compound="CCOc1ccc([C@H](COC)NC(=O)C2C3c4ccccc4N(C(C)=O)C23)cc1 (stereo partly drawn)" value_type=pEC50 assay_result=5.89
compound="CCOc1ccc([C@@H](NC(=O)C2C3COc4ccc(F)cc4C32)C(F)F)cn1 (stereo partly drawn)" value_type=pEC50 assay_result=5.96
compound="CCOc1ccc([C@H](COC)NC(=O)C2C3Oc4c(Br)cccc4C32)cc1 (stereo partly drawn) [Example B8]" value_type=pEC50 assay_result=6.55
compound="CCOc1ccc([C@H](COC)NC(=O)C2C3Oc4ccccc4C32)cc1 (stereo partly drawn) [Example B2]" value_type=pEC50 assay_result=5.82

From here, focus on the item given below.
What is its pEC50 for human α7 nAChR (Homo sapiens (Human), UniProt P36544)? Entry: CC(NC(=O)C1C2Oc3ccc(F)cc3C21)c1cccs1 (stereo not drawn)
5.92
